Listed molecules paired with reported concentration at which mycelial growth is inhibited completely
system: Phaeomoniella chlamydospora; test: Mycelial growth on malt-agar medium with fungicide (Example 6); assay type: cell-based

Solved entries:
CC(C1CC1)C(O)(Cn1cncn1)c1ccc(Cl)cc1 (stereo not shown) [cyproconazole]; 50 mg/L
CC(C)(C)C(O)(CCc1ccc(Cl)cc1)Cn1cncn1 (stereo not shown) [tebuconazole]; 50 mg/L
N#Cc1c(Cl)c(Cl)c(Cl)c(C#N)c1Cl [chlorothalonil]; 500 mg/L

Kindly review the next molecule as well.
Prompt: Report concentration at which mycelial growth is inhibited completely, nothing else, for this molecule: FC(F)C(F)(F)OCC(Cn1cncn1)c1ccc(Cl)cc1Cl (stereo not shown) [tetraconazole]
Response: 50 mg/L
